# Tested on: TO-3-N3-2 (biotin conjugate)
# protocol-text: pull-down binding Z-score (relative to library population); higher = stronger binding
# cond: RNA library: Library-2
Kindly state pull-down binding Z-score for each of the entries shown.
Numbers only.

sequence_entry="CUUCUUGCAUGUGACUUAUGUCCCUGCACAAGAAAAG [SHAPE_invitro_SARS-CoV-2_Motif_449]" property_name="pull-down binding Z-score" result_value=-0.257
sequence_entry="GUGGAGCCAAAAUUAGAAGGGCCAAAAUUCUACCUGGCCCACUACCACAG [hsa-mir-3978]" property_name="pull-down binding Z-score" result_value=0.318
sequence_entry="GGAUCAUGUUUGCCCCCGUGGACAGCUCUCUGGUGUGCUCCUCCUGCCAUCCUGCCCACCCCUGCAUAAUGCUGCUUC [hsa-mir-6809]" property_name="pull-down binding Z-score" result_value=0.384
sequence_entry="UUGGCGUAGUGAAAUAUAUAUUAAACACCAA [hsa-mir-16-2]" property_name="pull-down binding Z-score" result_value=0.371
sequence_entry="AUUUCUGUAGCUCUGAGACUAGACCU [hsa-mir-544b]" property_name="pull-down binding Z-score" result_value=-0.376

For every record below, what is its pull-down binding Z-score?
1. ACCAGGAGUUUUCUGUGGUGUAGAUGCUGUAAAUUUACUUACUAAUAUGUUUACACCACUAAUUCAACCUAUUGGU [SHAPE_invitro_SARS-CoV-2_Motif_181]
2. AACAAAUGUGUCAAUUUCAACUUCAAUGGUUUAACAGGCACAGGUGUU
3. GGGGAUCUAUCAGAUUCUGGCGAUCUACUCAACUGUCGCCAGUUCACUGGUGCUUUUGGUCUCC [IAV_invivo_HA_4_Motif_19+IAV_invivo_HA_4_Motif_19]
4. GACAGCAGAUAUAGUUGUC
5. GGGCAGGGAGGGCAGGGCAGGCUCUGGGGUGGGGGGUCUGUGAGUCAGCCACGGCUC [hsa-mir-4516]
6. CUACACUAGUGCCACAAGAGCACUAUGUUAG

Resp:
-0.13
-0.221
0.123
0.368
7.72
-0.213

// each sequence listed below needs its pull-down binding Z-score
1. GGGUAGGGUUUGGGGGAGAGCGUGGGCUGGGGUUCAGGGACA [pre-miRNA-1229_WT_FL]
2. GGCUGGAUCGAGUGAGCAAGCAGCAGAGGCC [IAV_invivo_M1_M2_7_Motif_14+IAV_invivo_M1_M2_7_Motif_14]
3. AUCACUGAAAUAUGUCUGAGCUUCUGUU [hsa-mir-4501]

Resp:
[8.09, 0.757, -0.00263]

Consider the following items and state reported pull-down binding Z-score for each.
1. CAUCACUGGAAUGUUCCAGCGACU [hsa-mir-3654]
2. UUUACAUAUAAAUUUCUAUUUGU [hsa-mir-4503]
3. UAGAGGUACAACAGUACUUUUA
4. AGUGCCUCACAGCCGCACAGGACCGAGGAUGCU [hsa-mir-4737]

Resp:
[-0.469, 0.317, -0.423, -0.204]

###

# System: TO-3-N3-2 (biotin conjugate)
# protocol-text: pull-down binding Z-score (relative to library population); higher = stronger binding
# cond: RNA library: Library-2
Binary call on pull-down binding Z-score: True from -0.2 upward, False beneath that.

Req: Please tell me: is the sequence CCACGCUCGUUCCGACACCGGAACGGCACUCGACACCGAGUGCAGCGUGG [3-way model-3_NoName] at or over -0.2 in terms of pull-down binding Z-score?
Resp: True

Req: Exam item: decide whether the reported pull-down binding Z-score for GCGCUGCCAGAAACUGGCCAGCGC [bulge-C] is at least -0.2.
Resp: False

Req: Threshold query (pull-down binding Z-score >= -0.2) on CCACUACCGGUGA [hsa-mir-4658]
Resp: False

Req: Reported pull-down binding Z-score reaches at least -0.2 for UCGCUUGCAAGUUGGAUUCAGAAUGAGUUUAACAAGGCAUGCGA [IAV_invivo_PA_3_Motif_18+IAV_invivo_PA_3_Motif_18] ?
Resp: False

Req: Given `GGUUUAGCUGCUGUUAAUAGUGUCCCUUGGGAUACUAUAGCUAAUUAUGCUAAGCC` , state whether its pull-down binding Z-score is at least -0.2.
Resp: False

Req: Evaluate GGUUCUGGGGUGUAGACGCUGCUGGCCAGCC [hsa-mir-4707] : pull-down binding Z-score at minimum -0.2?
Resp: True

Req: Identify whether the reported pull-down binding Z-score of the following sequence is -0.2 or greater: GUCUGCCAAAACCUUGGCAGAC [hsa-mir-3913-1]
Resp: False

Req: Determine whether this sequence has pull-down binding Z-score no lower than -0.2: AAACCUAAUGAAUUAUCUAGAGUAUUAGGUUU [SHAPE_invitro_SARS-CoV-2_Motif_132]
Resp: True

Req: Hi team, for UGUGGCAGUGGCAGAGGUCGCUACA [hsa-mir-6856] , is the recorded pull-down binding Z-score at or above -0.2?
Resp: True
